Tested on: pathogenic bacteria
protocol.details: MIC by microdilution broth method (NCCLS M7-A4), in vitro antibacterial activity
Assay type: cell-based
stated.conditions: Streptococcus pneumoniae, Organism B: fluoroquinolone-resistant clinical isolate of Streptococcus pneumoniae (QRDR amino acid substitutions)
Recorded MIC, one value per entry.
Write the value in µg/mL as a bare number.

Solved cases below.
COc1c(N2CC(=C(C)CN)C2)c(F)cc2c(=O)c(C(=O)O)cn(C3CC3)c12 [Compound 391] | 8
COc1c(N2CCC(=C(Cl)CN3CCCC3)CC2)c(F)cc2c(=O)c(C(=O)O)cn(C3CC3)c12 [Compound 193] | 8
NCC(F)=C1CN(c2nc3c(cc2F)c(=O)c(C(=O)O)cn3C2CC2)C1 [Compound 80] | 0.5
COc1c(N2CC/C(=C(\Cl)CN)C2)c(F)cc2c(=O)c(C(=O)O)cn(C3CC3)c12 [Compound 14] | 2
C/C(CN)=C1\CCCN(c2c(F)cc3c(=O)c(C(=O)O)cn4c3c2OC[C@@H]4C)C1 [Compound 404] | 4

# MIC (molecule: NC/C(F)=C1/CCCN(c2cc3c(cc2F)c(=O)c(C(=O)O)cn3C2CC2)CC1 [Compound 502] ) is 16

# MIC (molecule: C[C@H]1COc2c(N3CCC/C(=C/CN)C3)c(F)cc3c(=O)c(C(=O)O)cn1c23 [Compound 402] ) is 16

# MIC (molecule: C[C@H]1COc2c(N3CC(=C(Cl)CN)C3)c(F)cc3c(=O)c(C(=O)O)cn1c23 [Compound 77] ) is 8

# MIC (molecule: C[C@H]1COc2c(N3CC(=C(F)CN)C3)c(F)cc3c(=O)c(C(=O)O)cn1c23 [Compound 276] ) is 0.5

# MIC (molecule: CNCC(C)=C1CCN(c2c(F)cc3c(=O)c(C(=O)O)cn(C4CC4)c3c2OC(F)F)CC1 [Compound 220] ) is 2
